- Read-out: Matrix Metallopeptidase 9 (MMP9), MMP9 (gene 4318)
- test_summary: BSK_KF3CT_MMP9: BioMAP Diversity Plus: KF3CT Assay for Matrix Metallopeptidase 9 (MMP9) Biomarker Activity (AID 2283074)
- reported_conditions: primary human keratinocytes with fibroblasts; actives raise or lower the signal
Active and inactive are the calls of the source. The calls were made as follows: active = hit-call score of the fitted dose curve at least 0.9, where 1 is the maximum; inactive = score below 0.9.
Just give me one of these, please: active, inactive

Req: # outcome recorded in this test, key = "O=[N+]([O-])c1ccc(O)cc1"
Resp: inactive

Req: Try this compound too: "OCCC(F)(F)C(F)(F)C(F)(F)C(F)(F)C(F)(F)C(F)(F)F"
Resp: inactive

Req: Same read-out for "OC1CCCCC1" ?
Resp: inactive

Req: What do you have for "CCOC(=O)CC(O)(CC(=O)OCC)C(=O)OCC" ?
Resp: inactive

Req: Try this compound too: N#C[C@@H]1CC(F)(F)CN1C(=O)CNC1CC2CCC(C1)N2c1ncccn1 (some centres not stated)
Resp: inactive

Req: Would you mind doing "CCN(CC)CCNc1ccc(CNC=O)c2sc3ccc(OC)cc3c(=O)c12" as well?
Resp: active

Req: // same read-out, input: "CCCOC(=O)c1ccc(O)cc1"
Resp: inactive

====

- test_summary: BSK_LPS_SRB: Viability Assessment in the BioMAP Diversity Plus: LPS Assay (AID 2283079);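 also: total protein by sulforhodamine B absorbance as a cytotoxicity measure; measured one day after compound addition; fitted in both directions against DMSO so loss or gain of signal counts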
- reported_conditions: primary human HUVEC with PBMC
- Experimental: BSK_LPS is a cell-based, multiplexed-readout assay that uses umbilical vein endothelium and peripheral blood mononuclear cells, a human vascular primary cell co-culture, with measurements taken at 24 hours after chemical dosing in a 96-well plate.BSK_LPS_SRB is an assay component measured in the BSK_LPS assay. It measures 0.1% sulforhodamine related to cell death using Sulforhodamine staining technology.Data from the assay component BSK_LPS_SRB was analyzed into 1 assay endpoint. […]
Calls of active or inactive are those of the source. Rule for the calls: active = hit-call score of the fitted dose curve at least 0.9, where 1 is the maximum; inactive = score below 0.9.
Mark one answer only. Choices: active, inactive

Req: Short answer needed: outcome of this test for "CC(C)(C)c1cc(C(C)(C)C)c(O)c(C(C)(C)C)c1" ?
Resp: inactive

Req: Okay, and "CCCCCCCCCCCCN1CCCC1=O" ?
Resp: active

Req: Another compound: OC1CCC(C2CCCCC2)CC1 (stereo not drawn)
Resp: inactive

Req: And what about the compound CCCCC(CC)COC(=O)CCCCC(=O)OCc1ccccc1 (stereo not drawn) ?
Resp: inactive

Req: "O=C(O)c1ccccc1C(c1ccc(O)cc1)c1ccc(O)cc1" ?
Resp: inactive

Req: For "CCCCCCCCCCCCCC[N+](C)(C)C" then?
Resp: active

Req: Cool, now "C#C[C@]1(O)CC[C@H]2[C@@H]3CCC4=CC(=O)CC[C@@H]4[C@H]3CC[C@@]21C"
Resp: active

Req: Then "CC(=O)CC(C)(C)O" ?
Resp: inactive

Req: Consider next the compound "Cc1cc(C)c(O)c(C)c1" in the same way.
Resp: inactive

Req: Moving on to the next compound: "CCCCCCCCC(=O)O"
Resp: inactive

Req: Subsequent entry: CCCCC(CC)COC(=O)CCCCC(=O)OCC(CC)CCCC (stereo not drawn)
Resp: inactive

Req: Can you handle "ClC1=C(Cl)C(Cl)(Cl)C(Cl)=C1Cl" next?
Resp: active

Req: Same for "CN1CCN(c2ccccc2/C=C2\SCCN(c3ccc(Cl)c(Cl)c3)C2=O)CC1"
Resp: active

====

- assayed_target: human CYP2D6, CYP2D6 (gene 1565) (UniProt P10635)
- Sequence (P10635 whole entry, looked up): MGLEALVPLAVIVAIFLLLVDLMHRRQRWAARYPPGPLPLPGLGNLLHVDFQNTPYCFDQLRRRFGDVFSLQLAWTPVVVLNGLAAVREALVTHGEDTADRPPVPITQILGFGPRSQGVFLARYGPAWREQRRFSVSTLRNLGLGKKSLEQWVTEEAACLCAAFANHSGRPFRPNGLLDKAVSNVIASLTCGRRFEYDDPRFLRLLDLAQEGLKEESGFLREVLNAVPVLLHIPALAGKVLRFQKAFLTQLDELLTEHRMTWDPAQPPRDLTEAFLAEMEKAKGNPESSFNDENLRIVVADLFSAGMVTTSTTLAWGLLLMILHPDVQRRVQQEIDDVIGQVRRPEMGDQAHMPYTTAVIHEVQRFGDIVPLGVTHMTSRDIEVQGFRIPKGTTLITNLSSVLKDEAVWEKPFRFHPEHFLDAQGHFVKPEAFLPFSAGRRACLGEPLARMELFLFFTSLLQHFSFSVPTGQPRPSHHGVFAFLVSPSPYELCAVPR
- test_summary: NVS_ADME_hCYP2D6: NovaScreen (NVS) CYP450-related Enzyme Activity (ADME) Assay for human CYP2D6 (AID 2283107)
Calls of active or inactive are those of the source. How the source made its calls: active means hit-call score of the fitted dose curve at least 0.9, where 1 is the maximum; inconclusive means response in the unintended direction; inactive means score below 0.9.
Outcomes you can answer with include only these: active, inactive

Req: Entry "CCCCCCCCCCCCCC[N+](C)(C)C" : call = ?
Resp: active

Req: Likewise for "NC(=O)N(O)[C@@H]1C=C[C@H](Oc2cccc(Oc3ccc(F)cc3)c2)C1" ?
Resp: active

Req: Same question for "O=[N+]([O-])c1ccc(O)cc1" please.
Resp: inactive

Req: Another compound: "Cc1cc(CCN2CCN(c3nsc4ccccc34)CC2)cc2c1NC(=O)CC2(C)C"
Resp: inactive

Req: Record: "Nc1cccc2c(N)cccc12"
Resp: active

Req: What about "Oc1cc2ccccc2c2ccccc12" ?
Resp: active

====

- Read-out: Apolipoprotein A-V (APOA5) gene, APOA5 (gene 116519)
- test_summary: LTEA_HepaRG_APOA5: Life Technologies and Expression Analysis (LTEA) Assay for Apolipoprotein A-V (APOA5) gene using HepaRG (AID 2283474)
- reported_conditions: mRNA level, 48 h; actives raise or lower the signal
Active and inactive are the calls of the source. How the source made its calls: active means hit-call score of the fitted dose curve at least 0.9, where 1 is the maximum; inactive means score below 0.9.
property_label: AC50

Solved cases below.
Nc1cccc2c(N)cccc12 : inactive
N#C[C@@H]1CC(F)(F)CN1C(=O)CNC1CC2CCC(C1)N2c1ncccn1 (some centres undefined) : inactive
NC(=O)N1C(=O)C(C(=O)c2cc(Cl)cs2)c2cc(F)c(Cl)cc21 (centres undefined) : 35.1 µM (active)
Cc1cc(CCN2CCN(c3nsc4ccccc34)CC2)cc2c1NC(=O)CC2(C)C : 75.9 µM (active)
OCCC(F)(F)C(F)(F)C(F)(F)C(F)(F)C(F)(F)C(F)(F)F : inactive
CN(C)C=O : inactive
CN1CCN(c2ccccc2/C=C2\SCCN(c3ccc(Cl)c(Cl)c3)C2=O)CC1 : inactive
CC(C)(C)c1ccc(O)c(C(C)(C)C)c1 : inactive
O=C(OCCOCCOC(=O)c1ccccc1)c1ccccc1 : inactive
c1ccc2cc3c(ccc4ccccc43)cc2c1 : 15.9 µM (active)

The record that follows has no AC50 shown yet.
Req: // query AC50 value for entry "Oc1cccc(O)c1"
Resp: inactive

====

- assayed_target: Glucocorticoid receptor (Homo sapiens)
- test_summary: ATG_GR_TRANS: Attagene TRANS-FACTORIAL HepG2 Assay for human Glucocorticoid Receptor (GR) (AID 2282978);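 also: activators score as hits since higher reporter transcript over DMSO is fitted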
- reported_conditions: HepG2 Attagene TRANS GR reporter, mRNA transcription
Results filed as inconclusive are left out. Active and inactive are the calls of the source. Rule for the calls: active = hit-call score of the fitted dose curve at least 0.9, where 1 is the maximum; inconclusive = response in the unintended direction; inactive = score below 0.9.
Would you mind answering with one of these outcomes? active, inactive

Req: What did the test return for "NC(=O)N(O)[C@@H]1C=C[C@H](Oc2cccc(Oc3ccc(F)cc3)c2)C1" ?
Resp: inactive

Req: Another compound: "CCCCCCCC(=O)O"
Resp: inactive

Req: Entry "CC(=O)CC(C)(C)O" please
Resp: inactive

Req: Continue with "COc1ccc([N+](=O)[O-])cc1N"
Resp: inactive

Req: Another compound to look at: "CC(=O)NC1(c2cccc(F)c2)CCN(CC[C@@]2(c3ccc(Cl)c(Cl)c3)CN(c3ccccc3)C(=O)CO2)CC1"
Resp: active

Req: Also "O=C(O)Cc1cc(I)c(Oc2cc(I)c(O)c(I)c2)c(I)c1" , if possible.
Resp: inactive

Req: Could you do the same for "CCCCCCC(=O)O" , please?
Resp: inactive

Req: Item: "Cc1cc(CCN2CCN(c3nsc4ccccc34)CC2)cc2c1NC(=O)CC2(C)C"
Resp: inactive

Req: Also, "O=c1c(-c2ccc(O)cc2)coc2cc(O)ccc12" please.
Resp: inactive

Req: Request: "C#C[C@]1(O)CC[C@H]2[C@@H]3CCC4=CC(=O)CC[C@@H]4[C@H]3CC[C@@]21C"
Resp: inactive

Req: Then "CCCOc1sc(C(=O)N2CCC(c3cc(CN)ccc3F)CC2)c(C)c1Br" ?
Resp: inactive

====

- assayed_target: Cellular tumor antigen p53 (Homo sapiens)
- test_summary: TOX21_p53_BLA_p2_ratio: Tox21 HCT-116 p53 Agonism Beta-lactamase Assay, Ratio, Phase 2 (AID 2283592)
Results filed as inconclusive are left out. Active and inactive are the calls of the source. The calls were made as follows: active = hit-call score of the fitted dose curve at least 0.9, where 1 is the maximum; inconclusive = response in the unintended direction; inactive = score below 0.9.
Returns: one label drawn from active, inactive

Req: Hi team, can someone confirm the assay call for CCc1nn(C2CCCCC2)c2cc(C3(C#N)CCC(C(=O)O)CC3)ccc12 (stereo not given) ?
Resp: active

Req: What do we get for "COc1ccc([N+](=O)[O-])cc1N" ?
Resp: inactive

Req: Again, but for "CN1CCN(c2ccccc2/C=C2\SCCN(c3ccc(Cl)c(Cl)c3)C2=O)CC1"
Resp: inactive

Req: And the next one, CCCCC(CC)COC(=O)CCCCC(=O)OCc1ccccc1 (stereo not given) ?
Resp: inactive

Req: Next up: "CCCCCCCC(=O)O"
Resp: inactive

Req: Next compound up: "C[C@@H]1C[C@H]2[C@@H]3CCC4=CC(=O)C=C[C@]4(C)[C@@]3(F)[C@@H](O)C[C@]2(C)[C@@]1(O)C(=O)COP(=O)(O)O"
Resp: inactive

Req: Item: "O=c1c(-c2ccc(O)cc2)coc2cc(O)ccc12"
Resp: inactive

Req: // query: "O=C(OCCOCCOC(=O)c1ccccc1)c1ccccc1"
Resp: inactive

Req: Now try "CCCOC(=O)c1ccc(O)cc1" .
Resp: inactive

Req: Proceed to "CC(C)CCCCCCOC(=O)CCCCC(=O)OCCCCCCC(C)C"
Resp: inactive

Req: Item: CC(O)C(=O)O (stereo not given)
Resp: inactive

Req: Try "CC(=O)CC(C)(C)O" next.
Resp: inactive

Req: Follow-up entry: "CCCCCCCCCCCCN1CCCC1=O"
Resp: inactive

Req: Now consider "c1ccc2cc3c(ccc4ccccc43)cc2c1" and answer again.
Resp: inactive

Req: Can you check CC(O)CO (stereo not given) next?
Resp: inactive

Req: Then "CC(C)(C)CC(C)(C)c1ccc(O)c(-n2nc3ccccc3n2)c1" ?
Resp: inactive

Req: Then this compound: "Cc1cc(C)c(O)c(C)c1"
Resp: inactive

Req: How about this compound: "ClC1=C(Cl)C(Cl)(Cl)C(Cl)=C1Cl"
Resp: inactive

Req: How about this compound: "Cc1cc(CCN2CCN(c3nsc4ccccc34)CC2)cc2c1NC(=O)CC2(C)C"
Resp: active

Req: Try the compound COCC(C)O (stereo not given)
Resp: inactive
